Measured values drawn from PubChem BioAssay (Tox21) for this set.

protocol-notes: p53 small molecule agonists, cell-based qHTS assay: qHTS cell viability counter screen (AID 1963581); also: nearly all actives have a fitted effect of over 45% in size
particulars: p53RE-bla HCT-116 viability, ATP luminescence, 16 h; series mostly up to 66 µM
Description: National Center for Advancing Translational Sciences [NCATS] Division of Preclinical Innovation [DPI] U.S. Environmental Protection Agency [EPA] National Institutes of Environmental Health Sciences [NIEHS] National Toxicology Program [NTP] U.S. Food and Drug Administration [FDA] p53, a tumor suppressor protein, is activated following cellular insult, including DNA damage and other cellular stresses. […] The activation of the reporter gene under culture conditions can be detected by fluorescence intensity. […]
Results filed as inconclusive are left out. Active and inactive are the calls of the source. Calls follow the shape of the full dose curve.
measured-attribute: activity change, negative = cytotoxicity

Below: 4 compounds and their reported activity change, negative = cytotoxicity.
| compound | activity change, negative = cytotoxicity |
| --- | --- |
| C=C(C)C(=O)OCC1CCCO1 (configuration not stated) | inactive |
| C=CC(=O)OCC[N+](C)(C)C | inactive |
| Nc1nc2c(ncn2COCCO)c(=O)[nH]1 | inactive |
| CCN(CC)CCOC(=O)C(c1ccccc1)c1ccccc1 | inactive |

## Task Query activity change, negative = cytotoxicity for `Cc1c(NC(C)C)c(=O)n(-c2ccccc2)n1C`
## Result inactive

## Task Query activity change, negative = cytotoxicity for `C#C[C@]1(OC(C)=O)CC[C@H]2[C@@H]3CCC4=C[C@@H](OC(C)=O)CC[C@@H]4[C@H]3CC[C@@]21C`
## Result inactive

## Task Query activity change, negative = cytotoxicity for CC(N)CCCC(C)(C)O (configuration not stated)
## Result inactive

## Task Query activity change, negative = cytotoxicity for `Cc1oc(=O)oc1COC(=O)[C@@H]1N2C(=O)[C@@H](NC(=O)[C@H](N)c3ccccc3)[C@H]2SC1(C)C`
## Result inactive

## Task Query activity change, negative = cytotoxicity for `Cc1cc(=O)oc2cc(O)cc(O)c12`
## Result inactive

## Task Query activity change, negative = cytotoxicity for `Cc1ccc(NC(N)=O)cc1`
## Result inactive

## Task Query activity change, negative = cytotoxicity for FC1(F)C(F)(F)C(F)(F)C2(F)C(F)(C1(F)F)C(F)(F)C(F)(F)C1(F)C(F)(F)C(F)(F)C(F)(F)C(F)(F)C12F (configuration not stated)
## Result inactive

## Task Query activity change, negative = cytotoxicity for CCCCCCC(O)CO (configuration not stated)
## Result inactive
